Conditions: acidic group
I'd appreciate it if you could supply pKa values for the items below.
Give bare numbers.

>>> measurement("COc1ccccc1/C=N/O")
10.9

Answer for every listed entry: what is its pKa? The entries follow.
1. CCC1C(=O)C=C(C)OC1=O (stereo not drawn)
2. O=C(O)CCC(=O)NOCc1ccccc1
3. COc1ccc(/C=C/C(=O)O)cc1
4. Cn1cnc2c1NC=NS2(=O)=O
5. CCOC(=O)c1cccc(O)c1
6. CCc1c(-c2ccccc2)nn(-c2ccccc2)c1O
7. O=C([O-])c1cc([N+](=O)[O-])ccc1O

Key:
1. 5.3
2. 4.6
3. 4.6
4. 4.45
5. 9.05
6. 8
7. 10.1
